Reference for the values: patent US10039753B2

Molecular target: mutant G2019S LRRK2 (Homo sapiens, UniProt Q5S007, G2019S)
Sequence (Q5S007 970-2527 G2019S limits assumed): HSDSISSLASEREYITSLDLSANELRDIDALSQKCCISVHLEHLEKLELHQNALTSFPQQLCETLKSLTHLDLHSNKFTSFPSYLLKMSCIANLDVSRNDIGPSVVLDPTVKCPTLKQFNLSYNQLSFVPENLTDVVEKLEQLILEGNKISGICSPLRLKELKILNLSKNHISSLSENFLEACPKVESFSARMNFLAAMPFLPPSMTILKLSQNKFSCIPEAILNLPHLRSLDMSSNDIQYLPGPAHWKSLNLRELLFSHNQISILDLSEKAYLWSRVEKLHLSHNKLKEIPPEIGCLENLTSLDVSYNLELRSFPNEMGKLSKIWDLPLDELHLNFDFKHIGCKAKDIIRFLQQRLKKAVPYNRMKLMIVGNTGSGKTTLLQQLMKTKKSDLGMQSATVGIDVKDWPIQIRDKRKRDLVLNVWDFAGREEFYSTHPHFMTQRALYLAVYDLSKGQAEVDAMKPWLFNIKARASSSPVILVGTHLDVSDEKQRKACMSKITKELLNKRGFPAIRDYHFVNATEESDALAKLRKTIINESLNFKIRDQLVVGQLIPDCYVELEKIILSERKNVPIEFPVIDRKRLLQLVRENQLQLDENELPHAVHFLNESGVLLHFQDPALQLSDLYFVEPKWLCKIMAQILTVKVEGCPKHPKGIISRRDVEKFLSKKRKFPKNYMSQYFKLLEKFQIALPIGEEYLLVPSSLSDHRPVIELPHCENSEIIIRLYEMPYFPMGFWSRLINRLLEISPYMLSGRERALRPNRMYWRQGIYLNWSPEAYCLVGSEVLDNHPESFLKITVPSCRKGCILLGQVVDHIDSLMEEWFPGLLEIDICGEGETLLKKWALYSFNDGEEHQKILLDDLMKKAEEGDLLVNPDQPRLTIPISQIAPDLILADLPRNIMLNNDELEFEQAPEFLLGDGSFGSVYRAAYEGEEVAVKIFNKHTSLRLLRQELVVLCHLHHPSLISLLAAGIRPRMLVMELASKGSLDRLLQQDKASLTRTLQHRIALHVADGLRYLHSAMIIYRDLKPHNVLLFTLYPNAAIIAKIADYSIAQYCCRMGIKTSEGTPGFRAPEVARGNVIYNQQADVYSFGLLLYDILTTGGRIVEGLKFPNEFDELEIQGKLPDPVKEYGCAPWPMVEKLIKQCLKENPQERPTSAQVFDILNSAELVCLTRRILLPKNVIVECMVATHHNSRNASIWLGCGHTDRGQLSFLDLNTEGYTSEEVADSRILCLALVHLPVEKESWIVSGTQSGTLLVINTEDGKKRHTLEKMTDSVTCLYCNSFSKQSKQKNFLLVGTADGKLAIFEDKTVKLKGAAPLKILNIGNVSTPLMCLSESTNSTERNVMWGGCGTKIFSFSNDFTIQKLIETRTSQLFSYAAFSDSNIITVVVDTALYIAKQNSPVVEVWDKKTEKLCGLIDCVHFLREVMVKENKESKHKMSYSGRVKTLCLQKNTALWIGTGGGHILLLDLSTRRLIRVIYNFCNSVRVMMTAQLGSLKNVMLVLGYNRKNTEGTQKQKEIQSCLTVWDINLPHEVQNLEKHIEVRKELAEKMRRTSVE
Assay: LRRK2 Assay, Format 1 (Lantha Screen), G2019S mutant
Threshold 80 nM: IC50 strictly smaller gives Y, otherwise N.

molecule: COc1ccc2ncc3nc(Cc4noc(C)n4)n([C@H]4CCO[C@@H](C)C4)c3c2c1 [enantiomer of Example 87]
assigned-category: N

Query string: IC50 under 80 nM? Item: `Cc1cn(Cc2nc3cnc4ccccc4c3n2C2CCOCC2)nn1`
Result string: N

----------
Recorded IC50 for the following molecules
Molecular target: mutant G2019S LRRK2 (Homo sapiens, UniProt Q5S007, G2019S)
Experiment: LRRK2 Assay, Format 1 (Lantha Screen), G2019S mutant
Where a name gives a salt, the structure may show the parent alone.
Just the number please, in nM, no unit attached.

// solved cases for IC50 follow
molecule: C[C@@H]1C[C@H](n2c(Cc3ccon3)nc3cnc4ccc(Cl)cc4c32)CCO1 [Example 52]
IC50, nM: 2.7
--
molecule: C[C@@H]1C[C@H](n2c(Cn3cncn3)nc3cnc4ccc(Cl)cc4c32)CCO1 (single isomer, unassigned) [Example 65]
IC50, nM: 1.8
--
molecule: Cc1nc2cnc3ccc(Cl)cc3c2n1C1CCOCC1 [Example 17]
IC50, nM: 132
--
molecule: c1ccc2nn(Cc3nc4cnc5ccccc5c4n3C3CCOCC3)cc2c1 [Example 45]
IC50, nM: 52.9
--
molecule: Fc1ccc2ncc3nc(Cn4cc(C(F)(F)F)nn4)n(C4CCOCC4)c3c2c1 [Example 74, trifluoroacetate salt]
IC50, nM: 102

Query string: What value of measured IC50 is listed for Fc1ccc2ncc3nc(Cn4cc5ccccc5n4)n(C4CCOCC4)c3c2c1 [Example 76, trifluoroacetate salt] ?
Result string: 54.5

Query string: Which IC50 reading was recorded for the molecule C[C@@H]1C[C@H](n2c(Cc3cscn3)nc3c(N)nc4ccc(Cl)cc4c32)CCO1 [Example 85, trifluoroacetate salt] ?
Result string: 10

Query string: So what does the record say about IC50 for Clc1cn2cc(Cc3nc4cnc5ccccc5c4n3C3CCOCC3)nc2s1 [Example 71, trifluoroacetate salt] ?
Result string: 120

----------
Molecular target: mutant G2019S LRRK2 (Homo sapiens, UniProt Q5S007, G2019S)
Experiment: LRRK2 Assay, Format 2 (Lantha Screen), G2019S mutant
Type: biochemical
Design: purchased Invitrogen PV4881
Details: geometric mean of 2-4 determinations unless otherwise indicated (a: >=5; b: single determination); read-out: LRRK2, Format 2 G2019S IC50
Where a name gives a salt, the structure may show the parent alone.
The following compounds are shown together with reported pIC50 values.
Please report pIC50 as the negative decimal logarithm of the molar concentration, giving only the number.

Use the examples below as a reference point.
compound: CCc1cnn(Cc2nc3cnc4ccc(C#N)cc4c3n2CC(C)(F)F)c1
pIC50: 8.00

compound: CC(F)(F)Cn1c(Cn2cc(C(F)(F)F)cn2)nc2cnc3ccc(C#N)cc3c21
pIC50: 7.97

Query string: What does the data say about its pIC50? Entry: `C[C@@H]1C[C@H](n2c(Cc3cc(C4CC4)on3)nc3cnc4ccc(Br)cc4c32)CCO1`
Result string: 8.20

Query string: # input compound: `Cc1ccn2cc(Cc3nc4cnc5ccc(Cl)cc5c4n3[C@@H]3CCO[C@H](C)C3)nc2n1` ; wanted: its pIC50
Result string: 8.21

Query string: I have this compound here, Cc1cc(Cc2nc3cnc4ccc(C#N)cc4c3n2C2CCCC2)no1 [Example 152, formate salt] , and I need its recorded pIC50.
Result string: 7.39

Query string: I am curious: what pIC50 value has been reported for C[C@@H]1C[C@H](n2c(Cc3cnccn3)nc3cnc4ccc(Cl)cc4c32)CCO1 [Example 249, trifluoroacetate salt] ?
Result string: 7.73

----------
Target: GST-tagged truncated LRRK2 (Homo sapiens, UniProt Q5S007)
Construct: GST-tagged truncated LRRK2 from Invitrogen (Cat # PV4874); GST; purchased Invitrogen PV4874
Sequence (Q5S007 970-2527 limits assumed): as the sequence (Q5S007 970-2527 G2019S limits assumed) above, with S1050G counted along it
Assay: LRRK2 Assay, Format 2 (Lantha Screen), WT
Assay type: biochemical
Details: geometric mean of 2-4 determinations unless otherwise indicated (a: >=5; b: single determination)
pIC50: −log10 of the molar value. Counter-ions that a name gives are not always drawn.
Label N if pIC50 falls below 8; label Y in every other case.

// below: answered molecules
molecule: C[C@@H]1C[C@H](n2c(Cc3ccncn3)nc3cnc4ccc(C(F)(F)F)cc4c32)CCO1
assigned-category: Y
--
molecule: Cc1ccc(Cc2nc3cnc4ccc(Cl)cc4c3n2[C@@H]2CCO[C@H](C)C2)nc1
assigned-category: Y
--
molecule: CCC(F)(F)Cn1c(Cn2cc(C)nn2)nc2cnc3ccc(Cl)cc3c21
assigned-category: N
--
molecule: C[C@@H]1C[C@H](n2c(Cn3cncn3)nc3cnc4ccc(C#N)cc4c32)CCO1 [Example 120, formate salt]
assigned-category: Y
--
molecule: CO[C@H]1C[C@@H](n2c(Cn3cc(C)cn3)nc3cnc4ccc(Cl)cc4c32)C1
assigned-category: N

Shift focus to the following entry.
Query string: Given the entry `Cc1cnc(Cc2nc3cnc4ccc(C(F)(F)F)cc4c3n2[C@@H]2CCO[C@H](C)C2)cn1` , answer whether its pIC50 meets or surpasses 8.
Result string: Y

----------
Molecular target: mutant G2019S LRRK2 (Homo sapiens, UniProt Q5S007, G2019S)
Assay: LRRK2 Assay, Format 1 (Lantha Screen), G2019S mutant
Counter-ions that a name gives are not always drawn.
Listed here are compounds together with their documented pIC50.
// field semantics: pIC50 = negative decimal log of concentration (mol/L)

compound: CC1(C)CC(n2c(Cc3cscn3)nc3cnc4ccccc4c32)CCO1 (stereo not shown) [Example 72, trifluoroacetate salt]
tested-system: mutant G2019S LRRK2 (Homo sapiens, UniProt Q5S007, G2019S)
measurement-type: pIC50
obs-value: 6.77

Query string: Entry `Cc1cc(Cc2nc3cnc4ccc(C#N)cc4c3n2[C@@H]2CCO[C@H](C)C2)no1` , system mutant G2019S LRRK2 (Homo sapiens, UniProt Q5S007, G2019S): what pIC50 was measured?
Result string: 8.29

Query string: Which pIC50 is reported with mutant G2019S LRRK2 (Homo sapiens, UniProt Q5S007, G2019S) for this entry: `Cc1cn(Cc2nc3cnc4ccc(Br)cc4c3n2[C@@H]2CCO[C@H](C)C2)nn1` ?
Result string: 8.44

Query string: Item `C[C@@H]1C[C@H](n2c(Cc3ccon3)nc3cnc4cccnc4c32)CCO1` with mutant G2019S LRRK2 (Homo sapiens, UniProt Q5S007, G2019S) - pIC50?
Result string: 7.72

----------
Reported pIC50 values for the following compounds.
Biological target: GST-tagged truncated LRRK2 (Homo sapiens)
Construct: GST-tagged truncated LRRK2 from Invitrogen (Cat # PV4874); GST; purchased Invitrogen PV4874
Experiment: LRRK2 Assay, Format 1 (Lantha Screen), WT
Assay type: biochemical
Conditions: geometric mean of 2-4 determinations unless otherwise indicated
Please treat pIC50 as minus the base-10 logarithm of the molar concentration.

// known answers, use as guide
compound: Cc1nc(Cc2nc3cnc4ccc(Cl)cc4c3n2[C@@H]2CCO[C@H](CC#N)C2)no1 (single isomer, unassigned; ent-1)
pIC50: 8.42
//
compound: C[C@@H]1C[C@H](n2c(Cc3cc(C4CC4)on3)nc3cnc4ccc(Br)cc4c32)CCO1
pIC50: 7.84
//
compound: Cc1cn(Cc2nc3cnc4ccc(Br)cc4c3n2[C@@H]2CCO[C@H](C)C2)nn1
pIC50: 8.29

Here is another compound to look at.
Query string: Entry under review: `CC(C)c1cc(Cc2nc3cnc4ccc(Br)cc4c3n2[C@@H]2CCO[C@H](C)C2)no1` . Reported pIC50?
Result string: 7.77

----------
The following molecules are listed with their measured IC50 values.
Target: mutant G2019S LRRK2 (Homo sapiens, UniProt Q5S007, G2019S)
Assay: LRRK2 Assay, Format 2 (Lantha Screen), G2019S mutant
Assay type: biochemical
Set-up: purchased Invitrogen PV4881
Details: geometric mean of 2-4 determinations unless otherwise indicated (a: >=5; b: single determination); read-out: LRRK2, Format 2 G2019S IC50
State just the number; it will be interpreted in nM.

molecule: C[C@@H]1C[C@H](n2c(Cc3cn(C)cn3)nc3cnc4ccc(Cl)cc4c32)CCO1 [Example 131]
unit-descriptor: nM
IC50: 7.86

Query string: Query (molecule): Cc1nc(Cc2nc3cnc4ccc(C#N)cc4c3n2[C@@H]2CCO[C@H](C)C2)no1 [Example 123] ; field requested: IC50
Result string: 8.91

Query string: Field request: IC50 | item: C[C@@H]1C[C@H](n2c(C(=O)c3ccon3)nc3cnc4ccc(Cl)cc4c32)CCO1 [Example 174]
Result string: 19.6

----------
Target: GST-tagged truncated LRRK2 (Homo sapiens, UniProt Q5S007)
Construct: GST-tagged truncated LRRK2 from Invitrogen (Cat # PV4874); GST; purchased Invitrogen PV4874
Assay: LRRK2 Assay, Format 1 (Lantha Screen), WT
Format: biochemical
Details: Format 1, wild-type LRRK2; geometric mean of 2-4 determinations unless footnoted (a: ≥5 determinations; b: single determination; c: determined on trifluoroacetate salt)
Structures can show the parent of a compound that is named as a salt.
Each record here notes measured IC50.
Field format: number, assumed nM, no unit text.

The cases that follow already have their IC50 on record.
compound: C[C@H]1C[C@H](n2c(Cc3ccon3)nc3cnc4ccc(C#N)cc4c32)CCO1
tested-system: GST-tagged truncated LRRK2 (Homo sapiens, UniProt Q5S007)
unit-descriptor: nM
IC50: 72

compound: C[C@H]1C[C@@H](n2c(Cc3cn4ncsc4n3)nc3cnc4ccc(Cl)cc4c32)CCO1 (single isomer, unassigned)
tested-system: GST-tagged truncated LRRK2 (Homo sapiens, UniProt Q5S007)
unit-descriptor: nM
IC50: 279

compound: C[C@@H]1C[C@H](n2c(Cc3ccon3)nc3cnc4ccc(Br)cc4c32)C[C@H](C)O1
tested-system: GST-tagged truncated LRRK2 (Homo sapiens, UniProt Q5S007)
unit-descriptor: nM
IC50: 176

Query string: Quick one: IC50 for COc1ccc2ncc3nc(Cc4cc(C)on4)n([C@@H]4CCO[C@H](C)C4)c3c2c1 (single isomer, unassigned) ?
Result string: 39.3

Query string: What measured IC50 goes with `C[C@@H]1C[C@H](n2c(Cc3ccon3)nc3cnc4ccc(F)cc4c32)CCO1` ?
Result string: 8.8

Query string: Query: IC50; subject: CC1(C)CC(n2c(Cn3cc(C4CC4)nn3)nc3cnc4ccc(F)cc4c32)CCO1 (stereo not shown) [Example 79, trifluoroacetate salt]
Result string: 53.8
